# System: DLD-1
# Assay remarks: NCI tumour cell line growth inhibition, 48 h
The source made the active and inactive calls. Rule as the data show it: active = GI50 up to about 1.1 µM and inactive = higher.
Return exactly one item of true (1) = active, false (0) = inactive

Answered cases to consult:
compound=CS(=O)(=O)C1(Br)S(=O)(=O)OCCOS1(=O)=O class_label="false (0)"
compound="O=[N+]([O-])C1C2C=CC(C2)[C@H]1c1ccco1 (stereo partly specified)" class_label="false (0)"
compound=COCCOCOc1ccc(OCc2ccccc2)cc1 class_label="false (0)"
compound="COC(=O)C1Cc2c([nH]c3ccccc23)[C@H](CC(C)C)N1 (stereo partly specified)" class_label="false (0)"
compound="CC1=NN(c2ccccc2)C(=O)C1C(=O)C(=O)Nc1ccc(C)cc1C (stereo unspecified)" class_label="false (0)"

In: Which result was noted for this compound in the test: OC1[C@H]([C@H]2CCCC[C@@H]2O)CCC[C@@H]1[C@@H]1CCCC[C@H]1O (stereo partly specified)
Out: false (0)

In: Query `CO/N=C(/C(=O)Nc1c[n+](CC(=O)[O-])cs1)c1csc(N)n1` next
Out: false (0)

In: Would you mind doing COC(=O)C(/C(=N/NC(N)=O)C(=O)Nc1c(C)cccc1C(C)(C)C)c1nc2ccc(Cl)cc2nc1O (stereo unspecified) as well?
Out: false (0)

In: Field entry: `COc1ccc(/C=C\c2cc(OC)c(OC)c(OC)c2)cc1OC`
Out: true (1)

In: Moving on to `O=C(Nc1cccc(Cl)c1)c1cc2cc(/N=N/c3ccc(Br)cc3)ccc2oc1=O`
Out: false (0)

In: Same again, this time with CS(=O)(=O)C(C#N)c1nc2ccccc2nc1Cl (stereo unspecified)
Out: false (0)

---

# System: NCI-H460
# Assay remarks: NCI tumour cell line growth inhibition, 48 h
The source made the active and inactive calls. No stated cut-off is given here; in the data, active = GI50 up to about 1.1 µM and inactive = higher. Residues, ends and D or L forms follow the SMILES beside them. *: point of attachment. Bn = c1ccc(C*)cc1
Response enum: yes = active, no = inactive

Some solved cases for reference:
compound=CCCCCCCCCCSS(=O)(=O)c1ccc(C)cc1 class_label=no
compound="COC(=O)C(CC(C)C)NC(=O)C(N)Cc1ccc(OCc2ccccc2)cc1 (stereo not drawn) (H-Tyr(Bn)-Leu-OMe; configuration not given here)" class_label=no
compound=CCN(CC)CC(C)(C)C(=O)/C=C/c1ccc(/C=C/C(=O)C(C)(C)CN(CC)CC)cc1 class_label=yes
compound=C[C@@H]1CC[C@]2(C(=O)O)CC[C@]3(C)C(=CC[C@@H]4[C@@]5(C)CC[C@H](O)C(C)(C)[C@@H]5CC[C@]43C)[C@@H]2[C@]1(C)O class_label=no
compound=Cc1ccnc2nc(-c3cccc(Cl)c3)cc(O)c12 class_label=yes
compound=O=[N+]([O-])c1ccc(-c2ccc(C3=Nn4c(CNc5ccccc5Cl)nnc4SC3)o2)cc1 class_label=no
compound="CC1CCC2(NC1)OC1CC3[C@@H]4CC=C5C=CCC[C@]5(C)C4CC[C@]3(C)C1C2C (stereo partly drawn)" class_label=no

From here, focus on the item given below.
In: Outcome? `Cc1cc(Cl)ccc1OCC(=O)Nc1nc(N)nc(N)n1`
Out: no

---

# Tested on: DU-145
# Assay remarks: NCI tumour cell line growth inhibition, 48 h
Active and inactive are the calls of the source. Cut-off read from the data, not from the text of the source: active = GI50 up to about 1.1 µM and inactive = higher.
Known GI50 of a selection of compounds

Solved cases (2 shown):
compound="C=C1CC2(CC(c3ccccc3Cl)OC(c3ccccc3Cl)C2)OC1=O (stereo not drawn)" assay_endpoint=GI50 result="6.87 µM (inactive)"
compound=N#Cc1cc(Sc2ccc(N)c(C#N)c2)ccc1N assay_endpoint=GI50 result="24.9 µM (inactive)"

Turning now to a further compound:
In: Tell me the measured GI50 of `Nc1ccccc1N/C(=C\C(=O)C(Cl)(Cl)Cl)c1ccccc1` , please.
Out: 38.8 µM (inactive)

Reference source: ChEMBL document CHEMBL1201862
